- system: T1, Trop-2 on Trop-2 expressing tumor cells (human, UniProt P09758 27-323)
- T1 construct: Endogenous Trop-2 of human tumour cell lines; also called Trop-2 positive tumor cells; A431 (Trop-2+++)
- T1 sequence: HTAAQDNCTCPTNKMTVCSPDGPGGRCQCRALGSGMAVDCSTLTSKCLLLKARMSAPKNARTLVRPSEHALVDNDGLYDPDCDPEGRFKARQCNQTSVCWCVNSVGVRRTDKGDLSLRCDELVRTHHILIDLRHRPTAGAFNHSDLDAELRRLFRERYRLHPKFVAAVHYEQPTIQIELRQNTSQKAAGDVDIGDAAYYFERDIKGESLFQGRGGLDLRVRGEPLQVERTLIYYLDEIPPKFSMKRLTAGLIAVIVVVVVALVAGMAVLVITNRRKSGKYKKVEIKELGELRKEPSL
- assay.name: flow cytometry, Colo205 cells (Trop-2+), 1 ug antibody per 300,000 cells
observed.property: % positive (%)
Answers are plain numbers, in %.

Report % positive for every entry below.
1. h7E6_N antibody (human IgG1) (antibody, V domains shown, Human IgG1) VH: QVQLQESGPGLVKPSETLSLTCTVSGGSISSYGVHWIRQPPGKGLEWIGVIWTGGSTDYNSALMSRVTISVDTSKNQFSLKLSSVTAADTAVYYCARDGDYDRYTMDYWGQGTLVTVSS VL: DIVMTQSPDSLAVSLGERATINCRASKSVSTSNYSYMHWYQQKPGQPPKLLIYLASNLESGVPDRFSGSGSGTDFTLTISSLQAEDVAVYYCQHSRELPYTFGQGTKLEIK
2. h7E6_SVGL antibody (human IgG1) (antibody, V domains shown, Human IgG1) VH: QVQLQESGPGLVKPSETLSLTCTVSGGSISSYGVHWIRQPPGKGLEWIGVIWTSGVTDYNSALMGRVTISVDTSKNQFSLKLSSVTAADTAVYYCARDGDYDRYTMDYWGQGTLVTVSS VL: DIVMTQSPDSLAVSLGERATINCRASKSVSTSLYSYMHWYQQKPGQPPKLLIYLASNLESGVPDRFSGSGSGTDFTLTISSLQAEDVAVYYCQHSRELPYTFGQGTKLEIK
3. h7E6_SVGN antibody (human IgG1) (antibody, V domains shown, Human IgG1) VH: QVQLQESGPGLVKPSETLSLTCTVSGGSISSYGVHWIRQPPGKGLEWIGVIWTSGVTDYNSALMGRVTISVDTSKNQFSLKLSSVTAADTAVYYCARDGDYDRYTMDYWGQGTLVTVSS VL: DIVMTQSPDSLAVSLGERATINCRASKSVSTSNYSYMHWYQQKPGQPPKLLIYLASNLESGVPDRFSGSGSGTDFTLTISSLQAEDVAVYYCQHSRELPYTFGQGTKLEIK

Result:
1: 100; 2: 100; 3: 100

Cited source for all entries: patent US20140357844A1
